- Test system: KM12
- test_summary: Growth inhibition of human KM12 cells after 96 hrs by sulforhodamine B assay
- Format: functional
- reported_conditions: KM12, 96 h
Exam item: assign yes (1) to entries whose GI50 is below 20 µM and no (0) to entries at or above 20 µM. Note that a value of exactly 20 µM receives no (0).

INSERT INTO assay_data (molecule, qualitative_label) VALUES
  ('CCC(O)[C@@H](CC)Nc1nc(NCc2ccccn2)c2ncn(C(C)C)c2n1 (mixture of isomers)', 'no (0)'),
  ('CC[C@H](Nc1nc(NCc2ccccc2)c2ncn(C(C)C)c2n1)C(O)C(C)C (mixture of isomers)', 'no (0)'),
  ('CC[C@H](Nc1nc(NCc2ccccn2)c2ncn(C(C)C)c2n1)C(O)C(C)C (mixture of isomers)', 'no (0)'),
  ('CC[C@H](Nc1nc(NCc2ccccc2)c2ncn(C(C)C)c2n1)C(O)C(C)(C)C (mixture of isomers)', 'yes (1)'),
  ('CC[C@H](Nc1nc(NCc2ccccc2)c2ncn(C(C)C)c2n1)C(C)O (mixture of isomers)', 'yes (1)');

Challenge: Consider CC[C@H](Nc1nc(NCc2cccnc2)c2ncn(C(C)C)c2n1)C(C)O (mixture of isomers) . Does its GI50 lie strictly below 20 µM?
Response given: yes (1)

Challenge: Consider CC[C@@H](Nc1nc(NCc2ccccc2)c2ncn(C(C)C)c2n1)C(O)C(C)(C)C (mixture of isomers) . Does its GI50 lie strictly below 20 µM?
Response given: yes (1)

Challenge: Consider CC[C@H](Nc1nc(NCc2cccnc2)c2ncn(C(C)C)c2n1)C(O)C(C)C (mixture of isomers) . Does its GI50 lie strictly below 20 µM?
Response given: no (0)

====

- study_system: Cyclin-dependent kinase 4/cyclin D1 (Homo sapiens)
- Sequence (P11802 whole entry): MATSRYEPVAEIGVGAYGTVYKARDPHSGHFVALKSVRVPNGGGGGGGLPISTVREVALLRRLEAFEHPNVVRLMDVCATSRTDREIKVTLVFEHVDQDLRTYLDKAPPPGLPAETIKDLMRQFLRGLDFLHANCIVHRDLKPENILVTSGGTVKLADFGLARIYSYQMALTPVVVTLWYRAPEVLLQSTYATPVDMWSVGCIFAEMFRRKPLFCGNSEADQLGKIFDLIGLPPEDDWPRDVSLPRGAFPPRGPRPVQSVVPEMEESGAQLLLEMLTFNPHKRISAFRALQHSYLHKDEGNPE
- Sequence (P24385 whole entry, further chain): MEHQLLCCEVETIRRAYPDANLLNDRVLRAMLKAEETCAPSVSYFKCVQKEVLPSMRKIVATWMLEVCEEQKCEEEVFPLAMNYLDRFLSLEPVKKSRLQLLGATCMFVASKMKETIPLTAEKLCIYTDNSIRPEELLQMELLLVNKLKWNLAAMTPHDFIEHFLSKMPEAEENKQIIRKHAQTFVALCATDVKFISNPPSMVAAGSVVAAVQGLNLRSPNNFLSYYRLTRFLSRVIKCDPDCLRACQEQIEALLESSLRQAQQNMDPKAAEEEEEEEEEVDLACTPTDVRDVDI
- test_summary: Inhibition of CDK4/cyclin D1
Exam item: assign class 1 to entries whose IC50 is below 20 µM and class 0 to entries at or above 20 µM. Note that a value of exactly 20 µM receives class 0.

INSERT INTO measurements (compound, qualitative_label) VALUES
  ('CC[C@H](Nc1nc(NCc2ccccc2)c2ncn(C(C)C)c2n1)C(O)C(C)C (mixture of isomers)', 'class 0'),
  ('CC[C@H](Nc1nc(NCc2ccccn2)c2ncn(C(C)C)c2n1)C(C)O (mixture of isomers)', 'class 1'),
  ('CCC(O)[C@@H](CC)Nc1nc(NCc2cccnc2)c2ncn(C(C)C)c2n1 (mixture of isomers)', 'class 0'),
  ('CC[C@@H](Nc1nc(NCc2ccccc2)c2ncn(C(C)C)c2n1)C(O)C(C)(C)C (mixture of isomers)', 'class 0'),
  ('CC[C@@H](Nc1nc(NCc2cccnc2)c2ncn(C(C)C)c2n1)C(O)C(C)C (mixture of isomers)', 'class 0');

Challenge: Consider CC[C@H](Nc1nc(NCc2cccnc2)c2ncn(C(C)C)c2n1)C(O)C(C)C (mixture of isomers) . Does its IC50 lie strictly below 20 µM?
Response given: class 0

Challenge: Consider CC[C@H](Nc1nc(NCc2cccnc2)c2ncn(C(C)C)c2n1)C(O)C(C)(C)C (mixture of isomers) . Does its IC50 lie strictly below 20 µM?
Response given: class 1

====

- test_summary: Volume of distribution in BALB/c mouse plasma at 50 mg/kg, iv after 24 hrs by LC-MS analysis
- Assay type: ADME, organism-based
- Set-up: dose 50 mg/kg, route intravenous
attribute_measured: Vd

INSERT INTO results (mol, attribute_measured, assay_value) VALUES
  ('CC[C@H](Nc1nc(NCc2cccnc2)c2ncn(C(C)C)c2n1)[C@@H](C)O', 'Vd', '0.013 L'),
  ('CC[C@H](Nc1nc(NCc2cccnc2)c2ncn(C(C)C)c2n1)C(C)(C)O', 'Vd', '0.012 L'),
  ('CC[C@@H](Nc1nc(NCc2cccnc2)c2ncn(C(C)C)c2n1)C(C)(C)O', 'Vd', '0.01 L'),
  ('CC[C@H](CO)Nc1nc(NCc2ccccc2)c2ncn(C(C)C)c2n1', 'Vd', '0.073 L');

Please find the next compound below.
Challenge: Returns the measured Vd for the input compound. Input: `CC[C@@H](Nc1nc(NCc2cccnc2)c2ncn(C(C)C)c2n1)[C@H](C)O`
Response given: 0.084 L

====

- test_summary: Oral bioavailability in BALB/c mouse at 50 mg/kg by LC-MS analysis
- Type: ADME, organism-based
- reported_conditions: in vivo
attribute_measured: bioavailability (%)
Answers are plain numbers, in %.

INSERT INTO measurements (mol, assay_value) VALUES
  ('CC[C@@H](Nc1nc(NCc2cccnc2)c2ncn(C(C)C)c2n1)[C@H](C)O', 15),
  ('CC[C@@H](Nc1nc(NCc2cccnc2)c2ncn(C(C)C)c2n1)C(C)(C)O', 15),
  ('CC[C@H](Nc1nc(NCc2cccnc2)c2ncn(C(C)C)c2n1)C(C)(C)O', 15);

Please find the next compound below.
Challenge: Returns the measured bioavailability for the input compound. Input: `CC[C@H](Nc1nc(NCc2cccnc2)c2ncn(C(C)C)c2n1)[C@@H](C)O`
Response given: 15

====

For each record, write down the corresponding Cmax.
- test_summary: Cmax in BALB/c mouse plasma at 50 mg/kg, iv after 24 hrs by LC-MS analysis
- Assay type: ADME, organism-based
- Design: dose 50 mg/kg, route intravenous
Answers are plain numbers, in µM.

// known answers, use as guide
INSERT INTO results (mol, assay_value) VALUES
  ('CC[C@H](Nc1nc(NCc2cccnc2)c2ncn(C(C)C)c2n1)[C@@H](C)O', 268),
  ('CC[C@H](CO)Nc1nc(NCc2ccccc2)c2ncn(C(C)C)c2n1', 93.7),
  ('CC[C@H](Nc1nc(NCc2cccnc2)c2ncn(C(C)C)c2n1)C(C)(C)O', 215),
  ('CC[C@@H](Nc1nc(NCc2cccnc2)c2ncn(C(C)C)c2n1)C(C)(C)O', 275);

Please find the next compound below.
Challenge: Returns the measured Cmax for the input compound. Input: `CC[C@@H](Nc1nc(NCc2cccnc2)c2ncn(C(C)C)c2n1)[C@H](C)O`
Response given: 377

====

- test_summary: AUC in BALB/c mouse plasma at 50 mg/kg, iv after 24 hrs by LC-MS analysis
- Format: ADME, organism-based
- Design: time < 24 hr, dose 50 mg/kg, route intravenous
For each record, write down the corresponding AUC at 24 h.
Numbers only, in µM·h.

INSERT INTO results (compound, attribute_measured, assay_value) VALUES
  ('CC[C@@H](Nc1nc(NCc2cccnc2)c2ncn(C(C)C)c2n1)C(C)(C)O', 'AUC at 24 h', 223),
  ('CC[C@H](Nc1nc(NCc2cccnc2)c2ncn(C(C)C)c2n1)C(C)(C)O', 'AUC at 24 h', 109),
  ('CC[C@H](Nc1nc(NCc2cccnc2)c2ncn(C(C)C)c2n1)[C@@H](C)O', 'AUC at 24 h', 298),
  ('CC[C@H](CO)Nc1nc(NCc2ccccc2)c2ncn(C(C)C)c2n1 [SELICICLIB]', 'AUC at 24 h', 53.4);

Please find the next compound below.
Challenge: Returns the measured AUC at 24 h for the input compound. Input: `CC[C@@H](Nc1nc(NCc2cccnc2)c2ncn(C(C)C)c2n1)[C@H](C)O`
Response given: 158

====

For each record, write down the corresponding IC50.
- study_system: Cyclin-dependent kinase 1/cyclin B1 (Homo sapiens, UniProt P06493)
- Sequence (P06493 whole entry): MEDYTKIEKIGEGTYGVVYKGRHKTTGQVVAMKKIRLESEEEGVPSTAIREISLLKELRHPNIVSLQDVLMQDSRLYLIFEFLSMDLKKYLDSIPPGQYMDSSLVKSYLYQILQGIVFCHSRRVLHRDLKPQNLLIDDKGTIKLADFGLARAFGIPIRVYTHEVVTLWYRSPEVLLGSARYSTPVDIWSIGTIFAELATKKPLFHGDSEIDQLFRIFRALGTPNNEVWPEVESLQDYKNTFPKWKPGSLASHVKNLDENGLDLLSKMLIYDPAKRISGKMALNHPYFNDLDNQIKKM
- Sequence (P14635 whole entry, further chain): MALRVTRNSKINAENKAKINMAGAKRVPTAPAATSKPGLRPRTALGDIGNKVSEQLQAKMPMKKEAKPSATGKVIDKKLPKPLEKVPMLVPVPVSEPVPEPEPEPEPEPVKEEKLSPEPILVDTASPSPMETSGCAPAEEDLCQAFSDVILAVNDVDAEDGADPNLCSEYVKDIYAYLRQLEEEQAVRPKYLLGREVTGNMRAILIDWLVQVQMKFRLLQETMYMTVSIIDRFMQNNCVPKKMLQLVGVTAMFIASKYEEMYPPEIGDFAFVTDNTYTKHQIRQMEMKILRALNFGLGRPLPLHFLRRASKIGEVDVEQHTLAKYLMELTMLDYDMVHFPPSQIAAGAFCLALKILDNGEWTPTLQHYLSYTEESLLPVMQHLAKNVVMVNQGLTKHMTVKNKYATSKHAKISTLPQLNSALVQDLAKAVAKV
- test_summary: Inhibition of CDK1/cyclin B
Give bare numbers, in µM.

INSERT INTO measurements (compound, assay_value) VALUES
  ('CC[C@H](Nc1nc(NCc2cccnc2)c2ncn(C(C)C)c2n1)C(C)(C)O', 4.4);

Count: 2. Required value per item: IC50.
1. CC[C@H](Nc1nc(NCc2ccccn2)c2ncn(C(C)C)c2n1)C(C)(C)O
2. CC[C@@H](Nc1nc(NCc2ccccn2)c2ncn(C(C)C)c2n1)C(C)O (mixture of isomers)

Response given:
1. 24
2. 39

Count: 4. Required value per item: IC50.
1. CC[C@H](Nc1nc(NCc2cccnc2)c2ncn(C(C)C)c2n1)C(O)C(C)(C)C (mixture of isomers)
2. CC[C@H](Nc1nc(NCc2ccccn2)c2ncn(C(C)C)c2n1)C(O)C(C)(C)C (mixture of isomers)
3. CC[C@@H](Nc1nc(NCc2ccccn2)c2ncn(C(C)C)c2n1)C(O)C(C)(C)C (mixture of isomers)
4. CC[C@H](Nc1nc(NCc2cccnc2)c2ncn(C(C)C)c2n1)C(O)C(C)C (mixture of isomers)

Response given:
1. 21
2. 200
3. 200
4. 22

Challenge: # returns recorded IC50 (system: Cyclin-dependent kinase 1/cyclin B1 (Homo sapiens, UniProt P06493)) for CC[C@@H](Nc1nc(NCc2cccnc2)c2ncn(C(C)C)c2n1)C(O)C(C)(C)C (mixture of isomers)
Response given: 23
